- condition-description: 318.15 K; 101.33 kPa; Liquid; Vibrating tube method
± gives the expanded uncertainty stated by the source.
# reported mass density; entries follow

Please review the following examples before continuing.
- molecule: "CCCCCCn1cc[n+](CCC#N)c1.[Br-] [3-(2-cyanoethyl)-1-hexyl-1H-imidazolium bromide]"
  mass density: "1215.7 ± 1.1 kg/m3"
- molecule: "CCCCn1cc[n+](CCC#N)c1.[Br-] [1-butyl-3-(2-cyanoethyl)-1H-imidazolium bromide]"
  mass density: "1291 ± 1.1 kg/m3"
- molecule: "CCCCCCCCCCn1cc[n+](CCC#N)c1.[Br-] [3-(2-cyanoethyl)-1-decyl-1H-imidazolium bromide]"
  mass density: "1125.6 ± 1 kg/m3"

Prompt: For the molecule shown here, CCCCCCCCn1cc[n+](CCC#N)c1.[Br-] [3-(2-cyanoethyl)-1-octyl-1H-imidazolium bromide] , give the reported mass density.
Response: 1163 ± 1.1 kg/m3
